Tested on: Mycosphaerella graminicola; Anamorph: Septoria tritici; Bayer Code SEPTTR
assay-text: Leaf blotch of wheat, foliar fungicide treatment, one day protectant (1DP) or three day curative (3DC)
Assay type: in vivo, Septoria tritici on wheat plants (variety Yuma)
measurement-parameters: Zymoseptoria tritici, 24 h, one day protectant (1DP), 100 ppm, rating of percent disease control, read-out: SEPTTR 1DP 100 ppm
readout-kind: pest or weed control at 100 ppm

molecule="Fc1cccc(COc2ncc(F)c(NCOCc3ccccc3)n2)c1 [Compound 458]" test_system="Mycosphaerella graminicola; Anamorph: Septoria tritici; Bayer Code SEPTTR" experimental_result="51 to 75%"
molecule="Cn1ccc(COc2ncc(F)c(NSc3ccccc3[N+](=O)[O-])n2)n1 [Compound 366]" test_system="Mycosphaerella graminicola; Anamorph: Septoria tritici; Bayer Code SEPTTR" experimental_result="76 to 100%"
molecule="Cc1nc(COc2ncc(F)c(N)n2)cs1 [Compound 436]" test_system="Mycosphaerella graminicola; Anamorph: Septoria tritici; Bayer Code SEPTTR" experimental_result="76 to 100%"
molecule="CC(Oc1ncc(F)c(N)n1)c1cccc2ccccc12 (stereo not shown) [Compound 335]" test_system="Mycosphaerella graminicola; Anamorph: Septoria tritici; Bayer Code SEPTTR" experimental_result="76 to 100%"

Report pest or weed control at 100 ppm on Mycosphaerella graminicola; Anamorph: Septoria tritici; Bayer Code SEPTTR for this entry: Fc1cnc(OCc2ccccc2)nc1NNC1CCCCC1 [Compound 493] 26 to 50%

Report pest or weed control at 100 ppm on Mycosphaerella graminicola; Anamorph: Septoria tritici; Bayer Code SEPTTR for this entry: COCCOC(=O)Oc1ncc(F)c(/N=C/N(C)C)n1 [Compound 389] 76 to 100%

====

Test system: Mycosphaerella graminicola; Anamorph: Septoria tritici; Bayer Code SEPTTR
assay-text: Leaf blotch of wheat, foliar fungicide treatment, one day protectant (1DP) or three day curative (3DC)
Format: in vivo, Septoria tritici on wheat plants (variety Yuma)
measurement-parameters: Zymoseptoria tritici, 72 h, three day curative (3DC), 25 ppm, percent control rating, read-out: SEPTTR 3DC 25 ppm
Parameter: pest or weed control at 25 ppm. Scope: all listed entries.

Answered examples (3):
smiles_notation=C=CCOc1ncc(F)c(N/N=C/C2CC2)n1 readout_kind="pest or weed control at 25 ppm" experimental_result="0 to 25%"
smiles_notation=O=S(=O)(Nc1nc(OCc2ccccc2)ncc1F)c1ccccc1 readout_kind="pest or weed control at 25 ppm" experimental_result="0 to 25%"
smiles_notation=COc1cccc(COc2ncc(F)c(NNc3nccc(C(F)(F)F)n3)n2)c1 readout_kind="pest or weed control at 25 ppm" experimental_result="0 to 25%"

Report pest or weed control at 25 ppm on Mycosphaerella graminicola; Anamorph: Septoria tritici; Bayer Code SEPTTR for this entry: CSCOc1ncc(F)c(/N=C/N(C)C)n1 76 to 100%

Report pest or weed control at 25 ppm on Mycosphaerella graminicola; Anamorph: Septoria tritici; Bayer Code SEPTTR for this entry: Fc1ccc(COc2ncc(F)c(NNc3cccc(F)n3)n2)cc1 26 to 50%

Report pest or weed control at 25 ppm on Mycosphaerella graminicola; Anamorph: Septoria tritici; Bayer Code SEPTTR for this entry: O=S(=O)(Nc1nc(OCc2cccs2)ncc1F)c1ccccc1 0 to 25%

Report pest or weed control at 25 ppm on Mycosphaerella graminicola; Anamorph: Septoria tritici; Bayer Code SEPTTR for this entry: COc1ncc(F)c(N/N=C(\C)c2ccc(F)cc2)n1 0 to 25%

Report pest or weed control at 25 ppm on Mycosphaerella graminicola; Anamorph: Septoria tritici; Bayer Code SEPTTR for this entry: C=CCOc1ncc(F)c(NO[Si](C)(C)C(C)(C)C)n1 0 to 25%
